B1: glmS ribozyme (parent)
chain: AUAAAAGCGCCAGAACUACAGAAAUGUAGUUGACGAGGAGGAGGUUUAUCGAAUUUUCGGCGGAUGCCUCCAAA

- Variants of: B1
- ASSAY_PROTOCOL: self-cleavage kobs at 10000 uM GlcN6P; higher = faster cleavage; RNA array
- TEST_SETTINGS: with glucosamine-6-phosphate
Variants at the floor of the assay were thinned out.
Quick reference: self-cleavage kobs at 10000 uM GlcN6P of the listed items.
ENDPOINT: self-cleavage kobs at 10000 uM GlcN6P

1) AUAAAAGCGCCAGAACUACAGAAAUGUAGUUGACGAGGAGGAGAUUUAUCGAAUUUUCGGCGUAUGCCUCCAAA [G44A G63U]	< 1e-05 s⁻¹
2) AUAAAAGCGCCAGAACUACAGAAAUGUAGUUGACCAGGAGGAGGUUUAUAAAAUUUUCGGCGGAUGCCUCCAAA [G35C C50A G51A]	< 1e-05 s⁻¹
3) AUAAAAGCGCCAGAACUACAGAAAUGUAGUUGACGAGGCGGAGGUUUAACGAAUUUUCGGCGGAUGCCUCCAAA [A39C U49A]	< 1e-05 s⁻¹
4) AUAAAAGCGUCAGAACUACAGAAAUGUAGUUGACAAGGAGGAGGUUUAUCGAAUUUUCGGCGGAUGCCUCCAAA [C10U G35A]	< 1e-05 s⁻¹
5) AUAAAAGCGCCAGAACUACAGAAAUGUAGUUGACGAGGAGGAGGUUUAUCCAAUUUUCGGCGGCUGCCUCCAAA [G51C A64C]	< 1e-05 s⁻¹
6) AUAAAAGCGCCAGAACUACAGAAAUGUAGUUGACGAGGAGGAGGUUUACCGAAUUUUGGGCGGAUGCCUCCAAA [U49C C58G]	< 1e-05 s⁻¹
7) AUAAAAGCGUCAGAACUACAGAAAUGUAGUUGACGAGGAGGAGGUUUAUCGAAUUUUGGGCGGAUGCCUCCAAA [C10U C58G]	< 1e-05 s⁻¹
8) AUAAAAGCGCCAUAACUACAGAAAUGUAGUUGACGAGGAGGGGGUUUAUUGAAUUUUCGGCGGAUGCCUCCAAA [G13U A42G C50U]	< 1e-05 s⁻¹
9) AUAAAAGCUCCAGAACUACAGAAAUGUACUUGUCGAGGAGGAGGUUUAUCGAAUUUUCGGCGGUUGCCUCCAAA [G9U G29C A33U A64U]	< 1e-05 s⁻¹
10) AUAAAAGCCCCAGAACUACAGAAAUGUAGUUGACGAGGAGGAGGUUUAUCGAAUUUUCCGCGGAUGCCUCCAAA [G9C G59C]	< 1e-05 s⁻¹
11) AUAAAAGCCCCAGAACUACAGAAAUGUAGUUCACGAGGAGGAGGUUUAUCGAAUUUUCGGCGGAUGCCUCUAAA [G9C G32C C71U]	< 1e-05 s⁻¹
12) AUAAAAGCGCCAGAACUACAGAAAUGUAGUUGACGAGGAGAAGGUUUAGCGAAUUUUCGGCGGAUGCCUCCAAA [G41A U49G]	3.34e-05 s⁻¹
13) AUAAAAGCGCCAGAACUACAGAAAUGUAGUUGACGAGGGGGAGGGUUAUCGAAUUUUCGGCGGAUGCCUCCAAA [A39G U45G]	0.0173 s⁻¹
14) AUAAAAGCGCCAGCACUACAGAAAUGUAGUUGACGAGGAGGAGGUUUAUCGAGUUUUCGGCGGAUGCCUCCAAA [A14C A53G]	0.00721 s⁻¹
15) AUAAAAGCGCCAGAACUACAGAAAUGUAGUUGACGAGGAGGAGGUUUAUCAAAUUUUCGGCGGAAGCCUCCAAA [G51A U65A]	< 1e-05 s⁻¹
16) AUAAAAGCGCCAGAAGUACAGAAAUGUAGUUGACGAGGAGGAGGUUUAGCGAAUUUUCGGCGGAUGCCUCCAAA [C16G U49G]	5.76e-05 s⁻¹
17) AUAAAAGCGCCAGCACUACAGAAAUGUAAUUGACGAGGAGGAGGUUUAUCGAAUUUUCGGGGGAUGCCUCCAAA [A14C G29A C61G]	< 1e-05 s⁻¹
18) AUAAAACCGCCAGAACUACAGAAAUGUAGUUGACGAGGAGGAGGUUUAUCGAAUGUUCGGCGGAUGCCUCCAAA [G7C U55G]	< 1e-05 s⁻¹
19) AUAAAAGCGCCAGAACUAUAGAAAUGUAGUUGACGAGGAGGAGGUUUAUCGAAUUUUCGGCGGAUGCUUCCAAA [C19U C68U]	0.00423 s⁻¹
20) AUAAAUGCGCCAGUACUACAGAAAUGUAGUUGACGAGGAGGAGGUUUAUCGAAUUUUCGGCGGAUGCCUCCAAA [A6U A14U]	4.79e-05 s⁻¹
21) AUAAAAGCGCCAGAACUACAGAAAUGUAGUUGACGAGAAGGAGGCUUAUCGAAUUUUCGGCGGAUGCCUCCAAA [G38A U45C]	< 1e-05 s⁻¹
22) AUAAAAUCUCCAGAACUACAGAAAUGUAGUUGACGAGGAGGAGGUUUAUCGAAUUUUCGGCGGAUGCCUCCAAA [G7U G9U]	< 1e-05 s⁻¹
23) AUAAAAGCGACAGAACUACAGAAAUGUAGUUGACGAGGAGGAGGUGUAUCGAAUUUUCGGCGGAUGCGUCCAAA [C10A U46G C68G]	6.66e-05 s⁻¹
24) AUAAAAGCGCCAGACCUACAGAAAUGUAGUUCACGAGGAGGAGGUUUAUCGAAUUUUCGGCGGAUGCCUCCAAA [A15C G32C]	0.000138 s⁻¹
25) AUAAAAGCGCCAGAACUACAGAAAUGUAGUUGACGAGGAGGAGGUUUCUCGAAUUUUUGGCGGAUGCCUCCAAA [A48C C58U]	< 1e-05 s⁻¹
26) AUAAAAGCGCAAGAACUACAGAAAUGUAGUUGACGAGGAGGAGUUUUAUCGAAUUUUCUGCGGAUGACUCCAAA [C11A G44U G59U C67A]	0.00946 s⁻¹
